Where these numbers come from: patent US20120094909A1

measurement.target: T1, human PCSK9 (proprotein convertase subtilisin kexin type 9) (human, UniProt Q8NBP7 31-692)
T1 construct: Directly immobilized (SPR ProteOn), biotinylated (BLI), or in solution, depending on the assay; also called hPCSK9
procedure.summary: FRET, competitor ATI001125
measured.parameter: IC50

binder	measured.parameter	endpoint.result
2382C09 (designed binder, Anti-PCSK9 Adnectin, His6-tagged) MGVSDVPRDLEVVAATPTSLLISWDAPAEGYGYYRITYGETGGNSPVQEFTVPVSKGTATISGLKPGVDYTITVYAVEFDFPGSGYYHRPISINYRTEIDKPSQHHHHHH	IC50	0.6 nM
2382E05 (designed binder, Anti-PCSK9 Adnectin, His6-tagged) MGVSDVPRDLEVVAATPTSLLISWDAPAEGGYGYYRITYGETGGNSPVQEFTVPVSKGTATISGLKPGVDYTITVYAVEFDFPGAGYYHRPISINYRTEIDKPSQHHHHHH	IC50	0.4 nM
2382D03 (designed binder, Anti-PCSK9 Adnectin, His6-tagged) MGVSDVPRDLEVVAATPTSLLISWDAPADEAYGYYRITYGETGGNSPVQEFTVPVSKGTATISGLKPGVDYTITVYAVEFDFPGAGYYHRPISINYRTEIDKPSQHHHHHH	IC50	0.6 nM
2382E03 (designed binder, Anti-PCSK9 Adnectin, His6-tagged) MGVSDVPRDLEVVAATPTSLLISWDAPAGDGYGYYRITYGETGGNSPVQEFTVPVSKGTATISGLKPGVDYTITVYAVEFDFPGAGYYHRPISINYRTEIDKPSQHHHHHH	IC50	0.5 nM
2381H09 (designed binder, Anti-PCSK9 Adnectin, His6-tagged) MGVSDVPRDLEVVAATPTSLLISWDAPAGGGYGYYRITYGETGGNSPVQEFTVPVSKGTATISGLKPGVDYTITVYAVEFDFVGAGYYHRPISINYRTEIDKPSQHHHHHH	IC50	0.5 nM
2381B02 (designed binder, Anti-PCSK9 Adnectin, His6-tagged) MGVSDVPRDLEVVAATPTSLLISWEPFSRLPGGGEYYRITYGETGGNSPLQQFTVPGSKGTATISGLKPGVDYTITVYAVEYPYDYSGYYHRPISINYRTEIDKPSQHHHHHH	IC50	0.5 nM
2382C05 (designed binder, Anti-PCSK9 Adnectin, His6-tagged) MGVSDVPRDLEVVAATPTSLLISWDAPADGAYGYYRITYGETGGNSPVQEFTVPVSKGTATISGLKPGVDYTITVYAVEYSFPGAGYYHRPISINYRTEIDKPSQHHHHHH	IC50	0.9 nM
2382F05 (designed binder, Anti-PCSK9 Adnectin, His6-tagged) MGVSDVPRDLEVVAATPTSLLISWDAPAEAGKHYGYYRITYGETGGNSPVQEFTVPVSKGTATISGLKPGVDYTITVYAVEFDFPGAGYYHRPISINYRTEIDKPSQHHHHHH	IC50	0.9 nM
2382B09 (designed binder, Anti-PCSK9 Adnectin, His6-tagged) MGVSDVPRDLEVVAATPTSLLISWDAPADAYGYYRITYGETGGNSPVQEFTVPVSKGTATISGLKPGVDYTITVYAVEFDYPGSGYYHRPISINYRTEIDKPSQHHHHHH	IC50	0.6 nM
2382H09 (designed binder, Anti-PCSK9 Adnectin, His6-tagged) MGVSDVPRDLEVVAATPTSLLISWDAPAAAYGYYRITYGETGGNSPVQEFTVPSSKGTATISGLKPGVDYTITVYAVEFDFPGSGYYHRPISINYRTEIDKPSQHHHHHH	IC50	0.3 nM
2382D09 (designed binder, Anti-PCSK9 Adnectin, His6-tagged) MGVSDVPRDLEVVAATPTSLLISWDAPAEGYGYYRITYGETGGNSPVQEFTVPVSKGTATISGLKPGVDYTITVYAVEFDFPGAGYYHRPISINYRTEIDKPSQHHHHHH	IC50	0.4 nM
2451H07 (designed binder, Anti-PCSK9 Adnectin, His6-tagged) MGITDVPRDLEVVAATPTSLLISWNPPDVNYGYYRITYGETGGNSPLQEFTVPVSKGTATISGLKPGVDYTITVYAVEYPYAHAGYYHRPISINYRTEIDKPSQHHHHHH	IC50	0.2 nM
2382H10 (designed binder, Anti-PCSK9 Adnectin, His6-tagged) MGVSDVPRDLEVVAATPTSLLISWDAPAGGYGYYRITYGETGGNSPVQEFTVPVSKGTATISGLKPGVDYTITVYAVEFDFPGSGYYHRPISINYRTEIDKPSQHHHHHH	IC50	0.4 nM
2381B08 (designed binder, Anti-PCSK9 Adnectin, His6-tagged) MGVSDVPRDLEVVAATPTSLLISWDAPADGGYGYYRITYGETGGNSPVQEFTVPSSKGTATISGLKPGVDYTITVYAVEYTFPGAGYYHRPISINYRTEIDKPSQHHHHHH	IC50	1 nM
2381G09 (designed binder, Anti-PCSK9 Adnectin, His6-tagged) MGVSDVPRDLEVVAATPTSLLISWDAPAGDGYGYYRITYGETGGNSPVQEFTVPVSKGTATISGLKPGVDYTITVYAVEFTFPGAGYYHRPISINYRTEIDKPSQHHHHHH	IC50	1.1 nM
2451C06 (designed binder, Anti-PCSK9 Adnectin, His6-tagged) MGVSDVPRDLEVVAATPTSLLISWDAPAGAASYGYYRITYGETGGNSPVQEFTVPVSKGTATISGLKPGVDYTITVYAVEFPFPGAGYYHRPISINYRTEIDKPSQHHHHHH	IC50	0.4 nM
